Catalogue of pEC50 values
Molecular target: human M4 receptor (Homo sapiens, UniProt P08173)
Sequence (P08173 whole entry): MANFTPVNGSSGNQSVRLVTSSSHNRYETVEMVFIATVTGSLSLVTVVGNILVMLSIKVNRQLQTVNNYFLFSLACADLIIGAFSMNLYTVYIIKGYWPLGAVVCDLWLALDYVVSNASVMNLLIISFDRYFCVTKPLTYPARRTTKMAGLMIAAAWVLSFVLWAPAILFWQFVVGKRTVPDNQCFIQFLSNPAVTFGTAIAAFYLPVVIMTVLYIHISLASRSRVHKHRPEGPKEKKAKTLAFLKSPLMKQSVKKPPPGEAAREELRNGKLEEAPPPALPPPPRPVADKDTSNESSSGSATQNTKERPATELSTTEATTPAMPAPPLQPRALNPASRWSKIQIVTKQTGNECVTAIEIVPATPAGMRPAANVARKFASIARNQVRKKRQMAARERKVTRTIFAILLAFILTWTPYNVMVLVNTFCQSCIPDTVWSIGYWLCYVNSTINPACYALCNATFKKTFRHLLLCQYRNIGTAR
Assay: M4 GTPγS PAM assay
Details: membranes of CHO-K1 cells stably expressing human M4; EC20 acetylcholine 40 nM; 35S-GTP
pEC50: −log10 of the molar value.

COMPOUND	ASSAY_TARGET	pEC50
COc1nc(C#N)nc2c1C(C)N(C(=O)CC1CN(c3cncnc3)C1)C2 (single isomer, unassigned)	human M4 receptor (Homo sapiens, UniProt P08173)	≤ 5.70
COc1nc2c(c(OC)n1)C(C)N(C(=O)CC1CN(c3ccnc(C(F)(F)F)c3)C1)C2 (single isomer, unassigned) [Compound I-69]	human M4 receptor (Homo sapiens, UniProt P08173)	≤ 5.70
COc1nc(C#N)nc2c1C(C)N(C(=O)CC1CN(c3ccc(C4CC4)nc3)C1)C2 (single isomer, unassigned) [Compound I-33]	human M4 receptor (Homo sapiens, UniProt P08173)	6.30 to 7.00
COc1nc(C#N)nc2c1C(C)N(C(=O)CC1CN(c3ccc(C4CC4)nc3)C1)C2 (single isomer, unassigned) [Compound I-32]	human M4 receptor (Homo sapiens, UniProt P08173)	≤ 5.70

// recorded pEC50 for COc1nc(C#N)nc2c1C(C)N(C(=O)CC1CN(c3cccc(F)c3F)C1)C2 (single isomer, unassigned) [Compound I-20] : ≤ 5.70

Record summary for "Cc1nc2c(c(OC3CC3)n1)CN(C(=O)CC1CN(c3ccnc(C(F)(F)F)c3)C1)C2" : reported pEC50 = ≤ 5.70

Per the records, this compound ( COc1nc(C#N)nc2c1C(C)N(C(=O)CC1CN(c3ccnc(C4CC4)c3)C1)C2 (single isomer, unassigned) [Compound I-12] ) has pEC50 equal to ≥ 7.00

// sample "COc1nc(C)nc2c1CN(C(=O)CC1(F)CN(c3ccnc(C(F)(F)F)c3)C1)C2" , its pEC50 was ≤ 5.70

Lookup result for COc1nc(C)nc2c1C(C)N(C(=O)CC1CN(c3cncnc3)C1)C2 (single isomer, unassigned) ; measured pEC50: ≤ 5.70
